EXPERIMENTAL TARGET: T1, cynomolgus monkey (cyno) TSLP (cynomolgus monkey, UniProt A0A7N9CAT7 29-159)
T1 construct: also called cTSLP; cynomolgus TSLP
T1 sequence (A0A7N9CAT7 entry or part of it): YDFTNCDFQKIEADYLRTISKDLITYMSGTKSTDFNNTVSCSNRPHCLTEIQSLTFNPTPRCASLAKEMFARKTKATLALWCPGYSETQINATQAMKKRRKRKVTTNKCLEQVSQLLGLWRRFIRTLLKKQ
MEASUREMENT PROTOCOL: SPR
MEASURED ENDPOINT: Kd (nM)

BINDER	OBSERVED
BDG38.125 (antibody, V domains shown, IgG1) VH: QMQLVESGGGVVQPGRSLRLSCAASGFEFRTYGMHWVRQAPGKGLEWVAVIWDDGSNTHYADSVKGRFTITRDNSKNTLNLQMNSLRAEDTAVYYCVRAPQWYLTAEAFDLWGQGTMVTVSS VL: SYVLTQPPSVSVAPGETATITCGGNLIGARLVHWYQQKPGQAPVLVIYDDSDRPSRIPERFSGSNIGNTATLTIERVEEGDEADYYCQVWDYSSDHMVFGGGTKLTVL	0.0452

Reference source: patent US20240059769A1
